- Study system: Serine/threonine-protein kinase pim-3 (Rattus norvegicus)
- Protocol text: PIM-3 Enzyme Assay: The assay for the determination of PIM activity is based on the incorporation of [33P] ATP into PIM2tide substrate and capture of the radiolabeled peptide onto a Whatman P81 (phosphocellulose) filter plate. Assay mixtures contained 30 uM [gamma-33P] ATP (20 uCi/mL), 3.75 uM PIM2tide and 0.5 nM recombinant rat PIM-3 in place of PIM-1.
pIC50: −log10 of the molar value.
Parameter measured: pIC50

• CC1(C)CC(Nc2cccc3ccc(-c4nnc5ccccn45)nc23)CC(C)(C)N1 = 6.35
